# kon annotations
molecular target: T1, full length human tau protein 2N4R (hT40) (human, UniProt P10636 1-758); experiment: SPR, scAb captured, tau analyte
T1 construct: recombinant; also called T441
T1 sequence (P10636 other isoform, or with tags, fused parts or gaps limits assumed): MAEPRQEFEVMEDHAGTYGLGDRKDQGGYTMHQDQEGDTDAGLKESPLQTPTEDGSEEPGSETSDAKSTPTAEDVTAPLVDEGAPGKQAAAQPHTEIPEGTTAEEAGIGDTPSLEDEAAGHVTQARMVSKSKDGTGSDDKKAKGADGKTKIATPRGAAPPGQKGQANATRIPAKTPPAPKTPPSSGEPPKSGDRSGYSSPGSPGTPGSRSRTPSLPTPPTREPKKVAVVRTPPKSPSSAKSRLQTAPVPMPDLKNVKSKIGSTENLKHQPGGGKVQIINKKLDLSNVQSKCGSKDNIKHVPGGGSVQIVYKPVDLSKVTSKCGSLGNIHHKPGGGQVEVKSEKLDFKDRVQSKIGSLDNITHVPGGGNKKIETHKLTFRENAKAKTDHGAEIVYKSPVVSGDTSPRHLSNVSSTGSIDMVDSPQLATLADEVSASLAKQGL

| Binder | kon [M⁻¹ s⁻¹] |
| --- | --- |
| CC7 scAb (scFv, not shown: small tags and cut ends, scAb) scFv: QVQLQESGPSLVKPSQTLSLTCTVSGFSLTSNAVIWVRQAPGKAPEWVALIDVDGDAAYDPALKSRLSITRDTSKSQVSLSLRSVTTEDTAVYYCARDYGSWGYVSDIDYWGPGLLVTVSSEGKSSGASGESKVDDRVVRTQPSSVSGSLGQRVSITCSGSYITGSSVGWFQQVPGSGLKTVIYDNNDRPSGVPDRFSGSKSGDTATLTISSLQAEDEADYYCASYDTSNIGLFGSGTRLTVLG | 296000 |
| CE3 scAb (scFv, not shown: small tags and cut ends, scAb) scFv: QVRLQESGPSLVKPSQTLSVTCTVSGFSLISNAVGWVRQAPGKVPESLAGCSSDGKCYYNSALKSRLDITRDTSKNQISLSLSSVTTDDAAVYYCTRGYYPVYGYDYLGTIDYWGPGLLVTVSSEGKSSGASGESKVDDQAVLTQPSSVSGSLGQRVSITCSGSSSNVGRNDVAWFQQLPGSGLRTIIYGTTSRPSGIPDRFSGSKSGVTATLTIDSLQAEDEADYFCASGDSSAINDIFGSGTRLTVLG | 174000 |
| 3bF4 scAb (scFv, not shown: small tags and cut ends, scAb) scFv: QVQLQESGPSLVKPSQTLSLTCTVSGFSLSSNGVGWVRQAPGKVPEWLGDISSVGKKYANPALKSRLSFTRDTSKSQVSLSLSSVTTEDTAVYYCVKCRDGGVTYGYDIDYWGPGLLVTVSSEGKSSGASGESKVDDQAVLTQPSSVSKSTGQTVSITCSGSSSNVGLRNYVTWFQQVPGSAPKLLIYGATSRASGIPDRFSGSRSGNTATLIISSLQAEDEADYYCASADTNDGGVFGSGTRLTVLG | 109000 |
| 3aB7 scAb (scFv, not shown: small tags and cut ends, scAb) scFv: QVQLQESGPSLVKPSQTLSLTCTVSGFSLTSNGVGWVRQAPGKVPEWVGDKSSAGKTYGNPALKSRLSITRDTSKSQVSLSLSSVTTEDTAVYYCVRCRDGGVTYGYDVDYWGPGLLVTVSSEGKSSGASGESKVDDQAVLTQPSSVSKSLGQSVSITCSGSSSNVGYGDVVSWFQQFPGSAPKLLIFGTTTRASGVPDRFSGSRSGNAATLTINSLQAEDEADYYCASFDSDSGGIAGSGTRLTVLG | 207000 |
